# testedTarget: UniProtKB Q8N0U8
# Sequence (Q8N0U8 whole entry): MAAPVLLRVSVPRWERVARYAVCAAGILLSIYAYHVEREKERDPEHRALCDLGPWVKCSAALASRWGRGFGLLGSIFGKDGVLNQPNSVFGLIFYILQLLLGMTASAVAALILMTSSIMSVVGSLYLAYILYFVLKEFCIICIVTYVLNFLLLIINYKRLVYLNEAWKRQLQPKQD
propertyLabel: IC50 (nM)
Enter your answer as a number in nM; do not include the unit.

# query: IC50 of entry CC(=O)CC(c1ccccc1)c1c(O)c2ccccc2oc1=O (stereo not shown) [warfarin]
120

----------
# testedTarget: purified TrVKORL (Takifugu rubripes)
# Sequence (Q6TEK8 1-175): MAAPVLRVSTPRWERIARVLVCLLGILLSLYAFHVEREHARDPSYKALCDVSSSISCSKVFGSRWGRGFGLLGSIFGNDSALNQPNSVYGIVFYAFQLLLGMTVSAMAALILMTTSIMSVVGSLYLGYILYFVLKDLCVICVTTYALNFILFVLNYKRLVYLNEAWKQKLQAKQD
# measurementNotes: Fluorometric activity assay of purified TrVKORL
# Format: biochemical
# measurementContext: warfarin IC50, DTT as reductant, 500 nM enzyme, KO as substrate
propertyLabel: pIC50
Formally, pIC50 is defined as -log10 of the concentration c, with c in mol/L.

Item CC(=O)CC(c1ccccc1)c1c(O)c2ccccc2oc1=O (stereo not shown) [warfarin] with purified TrVKORL (Takifugu rubripes) - pIC50?
5.33

----------
# testedTarget: purified TrVKORL (Takifugu rubripes)
# Sequence (Q6TEK8 1-175): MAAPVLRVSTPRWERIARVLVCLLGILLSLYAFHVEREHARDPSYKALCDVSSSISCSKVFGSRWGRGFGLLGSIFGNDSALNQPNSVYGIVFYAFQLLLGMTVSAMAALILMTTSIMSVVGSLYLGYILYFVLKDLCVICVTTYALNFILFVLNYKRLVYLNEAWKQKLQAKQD
propertyLabel: pKi
Formally, pKi is defined as -log10 of the concentration c, with c in mol/L.

Item CC(=O)CC(c1ccccc1)c1c(O)c2ccccc2oc1=O (stereo not shown) with purified TrVKORL (Takifugu rubripes) - pKi?
7.54
